Cited source: ChEMBL document CHEMBL1144551

Tested on: Human immunodeficiency virus 1
Assay: Antiviral activity against HIV1 LA1 in human PBM cells
Type: functional, organism-based
Details: Human immunodeficiency virus 1, LA1, PBMC

ENTRY SMILES	EC90
Nc1nc(=O)c([C@@H]2C=C(CO)[C@@H](O)[C@H]2O)c[nH]1	> 100 µM
Nc1ncnc2c([C@@H]3C=C(CO)[C@@H](O)[C@H]3O)c[nH]c12	43.2 µM
O=c1[nH]cc([C@@H]2C=C(CO)[C@@H](O)[C@H]2O)c(=O)[nH]1	> 100 µM
Nc1nc(O)c2[nH]cc([C@@H]3C=C(CO)[C@@H](O)[C@H]3O)c2n1	> 100 µM
